Where these numbers come from: patent USRE48461E1

system: AR mRNA; assay: AR mRNA levels in LMR20 cells (with/without DHT or R1881); format: cell-based, human; conditions: LMR20 cells, no AR agonist, ASO 0.20 μM
Oligonucleotides are written 5' to 3', each unit as a sugar letter and its base; * is a phosphorothioate linkage, no mark a phosphodiester; rarer units and linkages stand in square brackets, end groups in braces. Plain capitals give the bases only. e = 2'-O-(2-methoxyethyl) (MOE); l = locked nucleic acid (LNA); k = constrained ethyl (cEt); [5mC] = 5-methylcytosine; d = 2'-deoxy (DNA)
AR mRNA levels (% baseline value) of cells without AR agonist treatment overview
Measured Property: AR mRNA levels (% baseline value) of cells without AR agonist treatment

[
  {
    "Substance": "549458 (kG*kT*kT*dG*dA*dT*dT*dT*dA*dA*dT*dG*dG*kT*kT*kG) [compound 549458]",
    "Measurement Target": "AR mRNA",
    "Result Unit": "% baseline value",
    "Recorded Value": 75
  },
  {
    "Substance": "554221 (ACCAAGTTTCTTCAGC; sugars from the 5' end l3 d10 l3, all phosphorothioate, methylation of C not given here) [compound 554221]",
    "Measurement Target": "AR mRNA",
    "Result Unit": "% baseline value",
    "Recorded Value": 140
  },
  {
    "Substance": "569236 (antisense eT*kG*kA*kT*dT*dT*dA*dA*dT*dG*dG*kT*kT*kG*e[5mC]*eA) [compound 569236]",
    "Measurement Target": "AR mRNA",
    "Result Unit": "% baseline value",
    "Recorded Value": 87
  },
  {
    "Substance": "560131 (antisense kT*kT*kG*dA*dT*dT*dT*dA*dA*dT*dG*dG*kT*kT*kG*e[5mC]) [compound 560131]",
    "Measurement Target": "AR mRNA",
    "Result Unit": "% baseline value",
    "Recorded Value": 74
  }
]

---

details: cynomolgus monkey, in vivo, sc, 40 mg/kg

[
  {
    "Substance": "GATTTAATGGTTGCAA (cEt gapmer chemistry, further chemistry not given here) [ISIS 586124]",
    "Result Unit": "µL",
    "Platelets": 391000
  },
  {
    "Substance": "ISIS 584163: antisense compound targeted to human AR (GAACATTATTAGGCTA; 3-10-3 (S)-cEt gapmer, further chemistry not given here)",
    "Result Unit": "µL",
    "Platelets": 461000
  },
  {
    "Substance": "TGATTTAATGGTTGCA [ISIS 569236] (cEt/MOE gapmer chemistry, further chemistry not given here)",
    "Result Unit": "µL",
    "Platelets": 358000
  }
]

---

Serum testosterone level overview
system: testosterone; assay: Serum testosterone levels in cynomolgus monkeys (ELISA); format: in vivo; conditions: cynomolgus monkey, 40 mg/kg subcutaneously, 40 mg/kg

[
  {
    "Entry Sequence": "TGATTTAATGGTTGCA [ISIS 569236] (cEt/MOE gapmer chemistry, further chemistry not given here) [targets intron 1]",
    "Serum testosterone level (ng/mL)": 12.7
  },
  {
    "Entry Sequence": "TTGATTTAATGGTTGC [ISIS 560131] (MOE and (S)-cEt gapmer chemistry, further chemistry not given here) [targets intron 1]",
    "Serum testosterone level (ng/mL)": 14.7
  },
  {
    "Entry Sequence": "TGATTTAATGGTTGCA [ISIS 569221] (cEt/MOE gapmer chemistry, further chemistry not given here)",
    "Serum testosterone level (ng/mL)": 8.8
  },
  {
    "Entry Sequence": "TTGATTTAATGGTTGC [ISIS 579671] (cEt/MOE gapmer chemistry, further chemistry not given here)",
    "Serum testosterone level (ng/mL)": 7.3
  }
]
